- Test system: MALME-3M melanoma
- assay-details: NCI-60 one-dose screen, 48 h (100 = growth as untreated, 0 = no growth, -100 = all killed)
- conditions: 10 µM unless noted
The panel holds about 83,000 compounds, 20% with a hit somewhere; the sample as a whole holds those more often.
# cutoff 60% applies to growth; >= gives label 1, < gives label 0

Some entries whose results are on file:
[[record]]
molecule = "O=C(Nc1cccc(C(F)(F)F)c1)Nc1ccc(OCc2nnc(-c3ccc(Cl)cc3)o2)c(F)c1"
class_label = "label 0"

[[record]]
molecule = "c1ccc(N2CCN(c3nncc4ccccc34)CC2)nc1"
class_label = "label 1"

[[record]]
molecule = "CCC(C)CC(C)C(=O)c1c(O)ccn(O)c1=O (stereo not given)"
class_label = "label 0"

[[record]]
molecule = "CC(=O)Oc1ccc(C23c4ccccc4C2(OC(C)=O)c2cc(OC(C)=O)ccc23)cc1 (stereo not given)"
class_label = "label 1"


# next molecule below
-- ask For this molecule, is measured growth 60% or higher? `O=C(COC(=O)[C@H](C[Se][Se]C[C@H](NC(=O)c1ccc(Br)cc1F)C(=O)OCC(=O)c1ccc(F)cc1)NC(=O)c1ccc(Br)cc1F)c1ccc(F)cc1`
-- reply label 0

* * *

- Test system: HCC-2998 colon
- assay-details: NCI-60 one-dose screen, 48 h (100 = growth as untreated, 0 = no growth, -100 = all killed)
- conditions: 10 µM unless noted
About 83,000 compounds went through this panel and 20% of them were active in at least one assay; those are over-represented in the sample as a whole.
measure-name: growth (%)
Write it as a number; the unit % goes unstated.

Record excerpt, results attached:
[[record]]
compound = "COc1ccc(-c2oc3cc(O)c(OC)c(O)c3c(=O)c2OC)cc1O"
measure_name = "growth"
test_result = 90.1

[[record]]
compound = "N#CCCN(CCO)c1ccccc1"
measure_name = "growth"
test_result = 129

[[record]]
compound = "CC(C)(C)c1cc(O)c(O)c(C(C)(C)C)c1"
measure_name = "growth"
test_result = 59.5

[[record]]
compound = "O=C1NCC(Nc2ccc(Br)cc2Cl)C(=O)N1 (stereo not given)"
measure_name = "growth"
test_result = 116

[[record]]
compound = "CC(O)c1nc2c(c(=O)n(C)c(=O)n2C)n1C (stereo not given)"
measure_name = "growth"
test_result = 103

[[record]]
compound = "CC/C(=C\\c1ccc(N(C)C)cc1)c1ccncc1"
measure_name = "growth"
test_result = 66.6

[[record]]
compound = "COc1ccc(-c2cc(Cc3cccs3)c(=O)n(Cn3cncn3)n2)cc1"
measure_name = "growth"
test_result = 108

[[record]]
compound = "OCc1nnn(-c2ccccc2)c1CO"
measure_name = "growth"
test_result = 119


-- ask What value of growth has been reported for the following compound? C=C1c2c(C)nn(-c3ccc(C#CCOC4OC(CO)C(O)C(O)C4O)cc3)c2N(C)C23C[C@H]1C1(C)c4c(C)nn(-c5ccc(C#CCOC6OC(CO)C(O)C(O)C6O)cc5)c4N(C)C(C)(C[C@H]12)C3 (stereo not given in full)
-- reply -3.04

-- ask Given the entry `CCN1C2=C(SC(=S)C1=C1SC(C(=O)OC)=C(C(=O)OC)S1)SC(=Nc1ccc(OC)cc1)C2=O` , report its measured growth.
-- reply -66.3

* * *

- Test system: HCT-116 colon
- assay-details: NCI-60 one-dose screen, 48 h
- conditions: 10 µM unless noted
The panel holds about 83,000 compounds, 20% with a hit somewhere; the sample as a whole holds those more often. Calls of active or inactive are those of the source. How the source made its calls: active means growth percent below 10; inactive means the rest.
Select the matching outcome among yes (1) = active, no (0) = inactive

[[record]]
molecule = "C=C(C)[C@@H]1C[C@H](O)Cc2cc(Cl)cc(Cl)c2N1"
class_label = "no (0)"

[[record]]
molecule = "O=C(Nc1ncc([N+](=O)[O-])s1)c1cccc([N+](=O)[O-])c1"
class_label = "no (0)"

[[record]]
molecule = "COc1cc2c(cc1OC)C1CCN3C(=O)CCC3N1CC2 (centres undefined)"
class_label = "no (0)"

[[record]]
molecule = "c1ccc2cc(C[n+]3ccn(CCCCCCCn4cc[n+](Cc5ccc6ccccc6c5)c4)c3)ccc2c1"
class_label = "no (0)"


-- ask Assay result, entry CC(=O)Oc1c(C)c(OC(C)=O)c2c(c1C(C)=O)OC1CC(=O)C(C(C)=O)=C(O)C21C (centres undefined) — outcome?
-- reply no (0)

-- ask # lookup: test call for `O=C(NN(C(=O)c1ccccc1)c1cccs1)c1ccccc1`
-- reply no (0)

-- ask Returns: the outcome recorded for O=NC1CC=CCC1c1ccccc1 (centres undefined) in this assay.
-- reply no (0)

-- ask // return assay outcome for `O=C(/C(=N/O)S(=O)(=O)c1ccccc1)c1cccs1`
-- reply no (0)

-- ask Fill in: this test's call for `Oc1[nH]c2ccc(Cl)cc2c1/C=c1/ccc2c(c1)N=C(c1ccc(C(F)(F)F)cc1)N=2` is ___
-- reply no (0)

-- ask Check the results log: what was the call for `Cc1ccc([N+](=O)[O-])cc1NC(=O)Nc1cccc(F)c1` ?
-- reply no (0)

-- ask What was the test verdict on `Cc1cccc(Cl)c1NC(=O)c1ccc2nc(NC(=O)NC3CC(C)(C)NC(C)(C)C3)sc2c1` ?
-- reply no (0)

-- ask What was the test verdict on `O=[N+]([O-])c1ccc(N/N=C/c2c(O)ccc3ccccc23)nc1` ?
-- reply no (0)

-- ask I'd appreciate the recorded outcome for `O=C(COC(=O)[C@H](C[Se][Se]C[C@H](NC(=O)c1ccc(Br)cc1F)C(=O)OCC(=O)c1ccc(F)cc1)NC(=O)c1ccc(Br)cc1F)c1ccc(F)cc1` from this test.
-- reply yes (1)

-- ask How was `CCc1ccc(CCN2C(=O)c3ccccc3C2=O)nc1` classified in this test?
-- reply no (0)

-- ask Given `CCCCCCCCCCCCNc1ncnc2[nH]ncc12` , state the outcome it received in this test.
-- reply no (0)

-- ask Hi, do you know how `Nc1ncc(-c2cnn(C3CCNCC3)c2)cc1-c1nc2cc(Cl)ccc2o1` came out in this test?
-- reply yes (1)

-- ask For COc1cc2c(C#N)n3c(c2cc1OC)C(=O)C(c1ccccc1)Oc1ccccc1-3 (centres undefined) , what call appears in the results of this test?
-- reply no (0)

-- ask Would you mind telling me which call this test gave `CCCCCCCCCCC[C@@H](C[C@H]1OC(=O)[C@H]1CCCCCC)OC(=O)[C@@H](CC(C)C)NC=O` ?
-- reply no (0)

-- ask Each molecule tested received a call. Report the one for `O=Cc1c[nH]c2ccc(NC(=O)OCc3ccccc3)cc12` .
-- reply no (0)

-- ask What outcome does the record of this test show for `NC(=O)SCC(=O)Nc1ccccc1-c1ccccc1` ?
-- reply no (0)

-- ask Fill in: this test's call for `O=C(Nc1ccncc1)C(=O)c1cn(S(=O)(=O)c2cccc(F)c2)c2ccccc12` is ___
-- reply no (0)

* * *

- Tested on: UACC-62 melanoma
- assay-details: NCI-60 one-dose screen, 48 h (100 = growth as untreated, 0 = no growth, -100 = all killed)
- conditions: 10 µM unless noted
About 83,000 compounds went through this panel and 20% of them were active in at least one assay; those are over-represented in the sample as a whole.
One threshold, 70%, splits the recorded growth values: lower ones are Y, equal or higher ones are N.

Record excerpt, results attached:
[[record]]
compound = "COc1ccc(/C(=C2\\O[C@@H]([C@H](O)CO)[C@H]3OC(C)(C)O[C@@H]23)c2cc(OC)c(OC)c(OC)c2)cc1O"
class_label = "N"

[[record]]
compound = "CC/C=C\\C=C/C(=O)N/C=C/CC1Cc2cccc(O)c2C(=O)O1 (stereo not drawn)"
class_label = "Y"

[[record]]
compound = "COc1ccc(C2CC(c3ccc(OC)c(OC)c3)=NN2C(=O)c2cc(OC)c(OC)c(OC)c2)cc1 (stereo not drawn)"
class_label = "Y"

[[record]]
compound = "CCOc1cc(C(C)(C)C)ccc1C1=N[C@H](c2ccc(Cl)cc2)[C@H](c2ccc(Cl)cc2)N1C(=O)N1CCN(CC#Cc2cccc3c2CN([C@@H]2CCC(=O)NC2=O)C3=O)CC1"
class_label = "Y"

[[record]]
compound = "CCOC(=O)c1c2c(c(C)n1Cc1ccccc1)-c1nc(N)ncc1CC2"
class_label = "N"


-- ask Hi there! Is growth for `CCN(CC)CCOc1ccccc1-n1c(C)ccc1-c1ccccc1` below 70%, do you know?
-- reply N

-- ask Determine whether this compound shows growth lower than 70% (ties excluded): Cc1ccc(C(O)C2=CC(=O)c3ccccc3C2=O)cc1 (stereo not drawn)
-- reply N

-- ask is_below(growth, 70%) for CC(CCC(=O)O)(NC(=O)c1ccc([N+](=O)[O-])cc1)C(=O)O (stereo not drawn) ?
-- reply N

-- ask Is it true that growth reported for `Cc1c(C(N)=O)sc2c1c(=O)n(Cc1ccccc1)c1nnc(S(=O)(=O)CC(=O)Nc3ccc(Cl)cc3)n21` is less than 70%?
-- reply Y

The reported measurements were obtained from PubChem BioAssay (NCI).
